tested on: SF-539; test: NCI tumour cell line growth inhibition, 48 h
Calls of active or inactive are those of the source. No stated cut-off is given here; in the data, active = GI50 up to about 1.1 µM and inactive = higher.
Tick one outcome: Y for active, N for inactive

State the result this test recorded for C=C1OC(c2ccccc2NC)=NC12CCCCC2 . N

Hey, what did the test say about COc1cc2c(c(O)c1O)-c1ccc(OC)c(=O)cc1C(NC(C)=O)CC2 (stereo not given) ? N

Recorded test call requested for CCCCCCCCC/C=C1\CCC(CN2CCOCC2)C1=O (stereo not given) N

Name the outcome recorded for C=C(C)[C@]12CC(C)C34OC(/C=C\C=C\CCCCCCCCC)(O[C@@H]1[C@@H]3[C@@H]1O[C@]1(CO)[C@@H](O)[C@]1(O)C(=O)C(C)=C[C@@H]41)O2 (stereo not given in full) in the assay. Y

Look up the recorded call for CN(Cc1cnc2nc(N)nc(N)c2n1)c1ccc(C(=O)NCCS(=O)(=O)O)cc1 in this test. N

Please state the recorded outcome for this molecule: S=c1nc(N/N=C/c2cccs2)c2cn[nH]c2[nH]1 N

What call does the record list for CCOP(=O)(OCC)/C(=C/c1ccccc1)CC(C)=O ? N

For this molecule, state the assay outcome: O=C(O)c1c(Br)c(Br)c(Br)c(Br)c1C1c2ccc(O)cc2Oc2cc(O)ccc21 N

Dear colleague, could you share the recorded outcome for C=CCc1cc(C=C(C#N)C#N)cc(OC)c1O when you have a moment? N

Field: outcome | Entry: Cc1ccc(C2CC(c3cccc([N+](=O)[O-])c3)=Nc3ccccc3S2)cc1 (stereo not given) N

Tell me the assay call for COC(=O)C1C=CCON2CCc3c(n(S(=O)(=O)c4ccccc4)c4ccccc34)C12 (stereo not given) please. N

Which outcome did this test record for the molecule Cc1cc(=O)oc2cc(OS(C)(=O)=O)ccc12 ? N

Per the assay record, what outcome was assigned to Cc1ccc([S+](c2ccccc2)c2cc(C)ccc2C)cc1.O=C(OC(C(=O)[O-])C(OC(=O)c1ccccc1)C(=O)O)c1ccccc1 (stereo not given) ? N

Assay result, entry CCCC(=O)Oc1ccc(/C=N/NC(N)=S)nc1 — outcome? N

Call for entry FC(F)(F)c1cc(N(C2c3ccccc3C=Cc3ccccc32)P(Cl)Cl)cc(C(F)(F)F)c1 : N

====

Consider the following compounds; for each one, report its GI50.
tested on: A549; assay: NCI tumour cell line growth inhibition, 48 h
Calls of active or inactive are those of the source. No stated cut-off is given here; in the data, active = GI50 up to about 1.1 µM and inactive = higher.

# GI50 of O=C(N/C=C1\C(=O)Oc2ccccc2C1=O)Nc1ccccc1 = 53.1 µM (inactive)

In plain terms, COC(=O)NCCc1n[nH]c2c1C(=O)C=C(OC)C2=O has a documented GI50 of 46.7 µM (inactive)

For reference, reported GI50 for COc1ccc(C(=O)C(c2ccc(OCc3ccccc3)cc2)c2ccc(OCc3ccccc3)cc2)cc1 stands at > 100 µM (inactive)

# compound O=c1c2cc(Cl)ccc2sc2cccc(Cl)c12 ; its GI50 = > 100 µM (inactive)

response.value for N#Cc1ccccc1NC(=O)/C(=N\Nc1ccc([N+](=O)[O-])cc1)C1C(=O)NC(=O)NC1=O (field: GI50) = > 100 µM (inactive)

For this compound ( CCN(CC)c1ccc(/N=N/c2ccc(-c3nc4ccc[n+](C)c4o3)cc2)cc1 ), measured GI50 is 9.77 µM (inactive)

Sample COCCOC(=O)NCn1cc(-c2ccccc2)nn1 ; GI50 observed: > 100 µM (inactive)

Item: CCN(CC)CC(O)CNc1ccc(NCC2CO2)c2c1C(=O)c1ccccc1C2=O (centres undefined) | GI50: 1.03 µM (active)

Input S=C1CCSc2c(ccc3ccccc23)N1 . Output GI50: > 100 µM (inactive)

Given item C=C1OC(c2ccccc2NC)=NC12CCCCC2 , the value recorded as its GI50 is > 100 µM (inactive)

Summary for this compound, Cc1c(C(=O)c2ccccc2)[n+]([O-])c2cc(Cl)c(Cl)cc2[n+]1[O-] : GI50 is 13 µM (inactive)

Just so you know, measured GI50 for Cn1c(=O)c(C#N)c(O)c2cc3ccccc3nc21 came out at > 100 µM (inactive)

Measured GI50 of COc1ccc(OCC(=N/NC(=O)c2ccncc2)/N=C/c2cccnc2)cc1 : 92.9 µM (inactive)

compound NNC(=O)CC(=O)Nc1ccccc1F , GI50 observed: > 100 µM (inactive)
